Observed IC50 for EP4 (Homo sapiens), reported per entry below.
Just the number in nM, nothing appended.

Problem: Supply IC50 value. Item: CCOc1cc(-c2cc(NCCc3cc(F)c(Br)cc3F)ncn2)sc1-c1noc(=O)[nH]1
Solution: 7

Problem: Annotate the compound CCOc1cc(-c2cc(NCCc3c(F)cc(Br)cc3F)ncn2)ccc1Cc1noc(=O)[nH]1 with its measured IC50.
Solution: 380

Problem: # return recorded IC50 for entry CCOc1cc(-c2cc(NCCc3c(F)cc(Br)cc3F)ncn2)ccc1-c1noc(=O)[nH]1
Solution: 23

Problem: Provide one value: measured IC50 of CCOc1cc(-c2cc(NCCc3ccc(C)cc3C)ncn2)sc1C(=O)O
Solution: 166
